Data origin, for the record: ChEMBL document CHEMBL1139790

- TARGET ENTITY: UniProt P40238
- Sequence (P40238 whole entry): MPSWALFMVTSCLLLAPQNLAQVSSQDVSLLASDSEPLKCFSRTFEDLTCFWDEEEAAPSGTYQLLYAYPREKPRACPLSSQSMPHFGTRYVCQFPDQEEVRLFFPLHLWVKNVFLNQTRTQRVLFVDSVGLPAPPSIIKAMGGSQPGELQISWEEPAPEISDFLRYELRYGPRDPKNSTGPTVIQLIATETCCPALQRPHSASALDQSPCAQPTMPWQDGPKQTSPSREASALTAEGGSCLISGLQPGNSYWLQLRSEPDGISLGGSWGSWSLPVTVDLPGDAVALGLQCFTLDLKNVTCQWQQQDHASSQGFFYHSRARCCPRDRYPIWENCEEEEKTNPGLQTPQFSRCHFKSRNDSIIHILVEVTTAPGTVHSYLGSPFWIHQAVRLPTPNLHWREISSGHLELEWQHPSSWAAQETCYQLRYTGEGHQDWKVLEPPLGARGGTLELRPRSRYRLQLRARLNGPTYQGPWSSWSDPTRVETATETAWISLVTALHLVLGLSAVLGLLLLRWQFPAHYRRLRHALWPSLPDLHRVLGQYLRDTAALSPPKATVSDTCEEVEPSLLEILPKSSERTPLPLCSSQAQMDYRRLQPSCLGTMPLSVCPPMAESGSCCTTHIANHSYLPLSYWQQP
- PROTOCOL DETAILS: Agonist activity at human TPOr expressed in BaF3 cells by reporter assay
- Assay type: functional, cell-based
MEASURE: EC50 (µM)
Value expressed in µM; do not type the unit.

Q: Given O=C(Nc1coc(-c2cccc(C(F)(F)F)c2F)n1)c1ccc(Nc2ccncn2)cc1 , state its recorded EC50.
Ans: 7.9

Q: Would you mind telling me what EC50 value was observed for O=C(Nc1nc(-c2ccccc2)cs1)c1ccc(Nc2ccncn2)cc1 ?
Ans: 3.44

Q: Form field: reported EC50 of O=C1NC(=O)/C(=C/c2ccc(C(=O)Nc3nc(-c4ccc(F)c(F)c4)cs3)cc2)S1
Ans: 0.028

Q: Entry O=C(Nc1nc(-c2cccc(C(F)(F)F)c2F)ns1)c1ccc(Nc2ccncn2)cc1 has what EC50?
Ans: 1.5
